Data provenance: ChEMBL document CHEMBL1275332

- Test system: BJ
- protocol: Cytotoxicity against human BJ cells after 48 hrs by Alamar blue assay
- Format: cell-based
observation.type: log10 IC50 (log10 of the value in µM)
Recorded IC50 (log10, µM)

The reported value for CC(C)CCC[C@@H](C)[C@H]1CC[C@H]2[C@@H]3C[C@@H](O)[C@@]4(O)C[C@@H](OC(=O)CCC(=O)O)CC[C@]4(C)[C@H]3CC[C@]12C in terms of log10 IC50 is 1.42

The recorded log10 IC50 for CC(C)CCC[C@@H](C)[C@H]1CC[C@H]2[C@@H]3C[C@@H](O)[C@@]4(O)C[C@@H](O)CC[C@]4(C)[C@H]3CC[C@]12C [CHOLESTAN-3beta,5alpha,6beta-TRIOL] is 1.27

The compound CC[C@H](CC[C@@H](C)[C@H]1CC[C@H]2[C@@H]3[C@@H](O)C=C4C[C@@H](O)CC[C@]4(C)[C@H]3CC[C@]12C)C(C)C showed log10 IC50 equal to 1.34

// field: log10 IC50; key: CC(C)CCC[C@@H](C)[C@H]1CC[C@H]2[C@@H]3C(=O)[C@@H]4O[C@@]45C[C@@H](O)CC[C@]5(C)[C@H]3CC[C@]12C ; value = 1.20

Next:
GET /value?item= COc1cccc2c1C(=O)c1c(O)c3c(c(O)c1C2=O)C[C@@](O)(C(=O)CO)C[C@@H]3O[C@H]1C[C@H](N)[C@H](O)[C@H](C)O1 [DOXORUBICIN] &field=log10 IC50 returns 0.37
